Experiment: Rhesus macaque single-dose pharmacokinetics
Assay type: in vivo, rhesus monkeys
Settings: male, rhesus monkey, plasma, single bolus IV 1 mg/kg, mean
attributeMeasured: Tmax (min)
Quick reminder: number only, in min, skip the unit.

For CC(/C=N/NC(=N)N)=N\NC(=N)N , what is its reported Tmax?
8.34

---

Assay: Multi-dose rat pharmacokinetic and tolerability study
Format: in vivo, Sprague Dawley rats
Settings: male, Sprague Dawley, in vivo, po, 40 mg/kg/day, Tmax
attributeMeasured: Tmax (h)
A number alone suffices; assume h.

Could you tell me which Tmax is on file for CC(/C=N/NC(=N)N)=N\NC(=N)N [MGBG] ?
7.33

---

Assay: Mouse single-dose pharmacokinetics
Format: in vivo, DBA/1 mice
Conditions: male, DBA/1, plasma, single bolus IV 1 mg/kg, mean
attributeMeasured: Tmax
State the value, then name its unit.

Would you kindly share the measured Tmax for CC(/C=N/NC(=N)N)=N\NC(=N)N ?
4.98 min

---

Experiment: in vivo
Parameters: species or system beagle dogs
Settings: male, beagle, dog, iv, 1 mg/kg
attributeMeasured: Tmax (min)
Express the result in min but write the number alone.

What does the data say about its Tmax? Entry: CC(/C=N/NC(=N)N)=N\NC(=N)N
4.98

---

Assay: Multi-dose rat pharmacokinetic and tolerability study
Assay type: in vivo, Sprague Dawley rats
Conditions: male, Sprague Dawley, in vivo, po, 60 mg/kg/day, AUC0-24
attributeMeasured: AUC(0-t) (µg·h/mL)
The reply should be a number in µg·h/mL, with the unit left off.

Param item = CC(/C=N/NC(=N)N)=N\NC(=N)N ; retrieve measured AUC(0-t).
4.38

---

Experiment: in vivo
Design: species or system beagle dogs
Details: male, beagle, dog, po, 10 mg/kg
attributeMeasured: Cmax
Note: state the figure and append the unit.

Bench note: what Cmax did CC(/C=N/NC(=N)N)=N\NC(=N)N [MGBG] show?
616 ng/mL

---

Assay: Multi-dose rat pharmacokinetic and tolerability study
Assay type: in vivo, Sprague Dawley rats
Settings: male, Sprague Dawley, in vivo, po, 20 mg/kg/day
attributeMeasured: AUC
Include the unit after the number when you answer.

Can you look up the measured AUC of CC(/C=N/NC(=N)N)=N\NC(=N)N [MGBG] for me?
7930 ng·h/mL

---

Experiment: Mouse single-dose pharmacokinetics
Format: in vivo, DBA/1 mice
Settings: male, DBA/1, plasma, oral 10 mg/kg vs IV 1 mg/kg
attributeMeasured: bioavailability (%)
Response body: numeric value in %, unit text excluded.

Quick check: bioavailability of CC(/C=N/NC(=N)N)=N\NC(=N)N ?
44.3

---

Experiment: Rhesus macaque single-dose pharmacokinetics
Type: in vivo, rhesus monkeys
Conditions: male, rhesus monkey, single bolus IV 1 mg/kg, plasma, mean
attributeMeasured: Cmax (ng/mL)
Lab book: enter the figure in ng/mL, no units written.

Please look up its Cmax: CC(/C=N/NC(=N)N)=N\NC(=N)N
757

---

Test: in vivo
Design: species or system beagle dogs
Settings: male, beagle, dog, iv, 1 mg/kg
attributeMeasured: Cmax (ng/mL)
Dear colleague, please return just the value in ng/mL, with no unit written.

I would be grateful if you could share the reported Cmax for CC(/C=N/NC(=N)N)=N\NC(=N)N .
1180

---

Test: in vivo
Set-up: species or system beagle dogs
Conditions: male, beagle, dog, iv, 1 mg/kg
attributeMeasured: half-life (min)
Expressed in min, but write only the number.

What measured half-life goes with CC(/C=N/NC(=N)N)=N\NC(=N)N ?
948

---

Test: Mouse single-dose pharmacokinetics
Format: in vivo, DBA/1 mice
Conditions: male, DBA/1, plasma, single oral gavage 10 mg/kg, mean
attributeMeasured: half-life (h)
Record the value in h, omitting the unit from your answer.

# half-life lookup, item CC(/C=N/NC(=N)N)=N\NC(=N)N
11.8

---

Assay: Multi-dose rat pharmacokinetic and tolerability study
Format: in vivo, Sprague Dawley rats
Conditions: male, Sprague Dawley, in vivo, po, 20 mg/kg/day, Tmax
attributeMeasured: Tmax (h)
Form entry: value (h) — number only.

# get_value(readout='Tmax', item= CC(/C=N/NC(=N)N)=N\NC(=N)N [MGBG] )
10

---

Assay: in vivo
Set-up: species or system beagle dogs
Conditions: male, beagle, dog, po, 10 mg/kg
attributeMeasured: half-life (h)
Numeric only. Scale: h

Recorded half-life for CC(/C=N/NC(=N)N)=N\NC(=N)N , please?
15.5

---

Assay: Rhesus macaque single-dose pharmacokinetics
Format: in vivo, rhesus monkeys
Conditions: male, rhesus monkey, plasma, oral 10 mg/kg vs IV 1 mg/kg, two-compartmental analysis used
attributeMeasured: bioavailability (%)
API: value field is a number in %; no unit string.

bioavailability lookup needed for CC(/C=N/NC(=N)N)=N\NC(=N)N [MGBG] , thanks.
35

---

Assay: Rat single-dose pharmacokinetics
Assay type: in vivo, Sprague Dawley rats
Conditions: male, Sprague Dawley, single oral gavage 10 mg/kg, AUCall, time zero to last plasma concentration measurement
attributeMeasured: AUC (ng·h/mL)
Give a bare numeral; the unit ng·h/mL is implied.

# query: AUC of entry CC(/C=N/NC(=N)N)=N\NC(=N)N [MGBG]
1280

---

Assay: Multi-dose rat pharmacokinetic and tolerability study
Format: in vivo, Sprague Dawley rats
Conditions: male, Sprague Dawley, in vivo, po, 60 mg/kg/day, Cmax
attributeMeasured: Cmax (ng/mL)
Numeric answer only, unit ng/mL assumed.

Which measured Cmax value corresponds to CC(/C=N/NC(=N)N)=N\NC(=N)N [MGBG] ?
296

---

Assay: Mouse single-dose pharmacokinetics
Format: in vivo, DBA/1 mice
Conditions: male, DBA/1, single oral gavage 10 mg/kg, plasma, mean
attributeMeasured: AUC

What measured AUC goes with CC(/C=N/NC(=N)N)=N\NC(=N)N ?
1420 ng·h/mL

---

Assay: Rhesus macaque single-dose pharmacokinetics
Type: in vivo, rhesus monkeys
Conditions: male, rhesus monkey, plasma, single oral gavage 10 mg/kg, mean
attributeMeasured: half-life (h)
Number in h, nothing else.

Recorded half-life of CC(/C=N/NC(=N)N)=N\NC(=N)N , please.
24.2

---

Test: Multi-dose rat pharmacokinetic and tolerability study
Format: in vivo, Sprague Dawley rats
Conditions: male, Sprague Dawley, in vivo, po, 20 mg/kg/day, AUC0-24
attributeMeasured: AUC(0-t) (ng·h/mL)
Form entry: value (ng·h/mL) — number only.

I am curious: what AUC(0-t) value has been reported for CC(/C=N/NC(=N)N)=N\NC(=N)N ?
1750
